Tested on: wheat (Triticum aestivum)
TEST DETAILS: Test A postemergence, wheat
Format: in vivo
APPLIED CONDITIONS: Triticum aestivum, post-emergence, 240 h; Postemergence, 125 g ai/ha; visual injury approx. 10 days; 0 to 100 scale (0 no effect, 100 complete control); read-out: Plant response rating, Wheat
VALUE TYPE: plant injury at 125 g/ha (%)
Just the number please, in %, no unit attached.

In the examples that follow, each entry is paired with its recorded plant injury at 125 g/ha.
Cc1c(NS(=O)(=O)C(F)(F)F)cc(C(=O)N(C)C)c(C)c1F : 30
Cc1cc(C)c(C2=NOC3CCOCC23)cc1NS(=O)(=O)C(F)(F)F (stereo not shown) : 70

**Query** Lab note: need plant injury at 125 g/ha with wheat (Triticum aestivum) for entry Cc1cc(C)c(C2=NOC3COCCC23)cc1NS(=O)(=O)C(F)(F)F (stereo not shown) , please look it up.
**Result** 60

**Query** Please provide the recorded plant injury at 125 g/ha for `Cc1cc(C)c(N(COC(=O)C(C)(C)C)S(=O)(=O)C(F)(F)F)cc1C1=NO[C@@H]2CCC[C@H]12` , tested on wheat (Triticum aestivum).
**Result** 20

* * *

Test system: kochia (Bassia scoparia)
TEST DETAILS: Test A1 preemergence, kochia
Type: in vivo
APPLIED CONDITIONS: 125 g ai/ha, 0 to 100 scale, 0 no effect, 100 complete control
Source text: […]
Quick reference for Plant response rating, Kochia among some molecules
Number, no unit, nothing else.

Reference set, count: 2
CCC1ON=C(c2cc(N(COC(=O)C(C)(C)C)S(=O)(=O)C(F)(F)F)c(C)cc2C)C1CC (centres unmarked) [Compound 347] : 50
Cc1ccc(C2=NOC3CCCC23)cc1NS(=O)(=O)C(F)(F)F (centres unmarked) [Compound 377] : 20

As a next step, examine the molecule that follows.
**Query** # query: Plant response rating, Kochia of entry Cc1cc(F)c(C2=NOC3CCCC23)cc1NS(=O)(=O)C(F)(F)F (centres unmarked) [Compound 310]
**Result** 40

* * *

Test system: Pigweed, Palmer (palmer amaranth, palmer pigweed, Amaranthus palmeri)
TEST DETAILS: Test A1 postemergence, Pigweed, Palmer
Assay type: in vivo
APPLIED CONDITIONS: Postemergence, 125 g ai/ha; 0 to 100 scale
Listing: Plant response rating, Pigweed, Palmer of selected molecules
I'd appreciate a reply containing only the number, no unit.

Study these solved cases before continuing.
CCOC(=O)N(c1cc(C(=O)N2C[C@@H](C)O[C@@H](C)C2)c(C)c(C)c1C)S(=O)(=O)C(F)(F)F [Compound 332] : 30
Cc1cc(C)c(N(S(=O)(=O)C(F)(F)F)S(=O)(=O)C(F)(F)F)cc1C1=NOC2COCC12 (centres unmarked) [Compound 296] : 20
CCOC(=O)N(c1cc(C(=O)N2CCOCC2)c(C)c(C)c1C)S(=O)(=O)C(F)(F)F [Compound 325] : 90
Cc1c(C(=O)N2CCC(C)CC2)cc(N(COC(=O)C(C)(C)C)S(=O)(=O)C(F)(F)F)c(C)c1C [Compound 369] : 40

**Query** Quick check: Plant response rating, Pigweed, Palmer of Cc1c(NS(=O)(=O)C(F)(F)F)cc(C(=O)N2CCSCC2)c(C)c1C [Compound 283] ?
**Result** 50

**Query** I have this molecule here, Cc1cc(C)c(N(COC(=O)C(C)(C)C)S(=O)(=O)C(F)(F)F)cc1C1=NOC2(C)CCCC12 (centres unmarked) [Compound 341] , and I need its recorded Plant response rating, Pigweed, Palmer.
**Result** 20

**Query** Plant response rating, Pigweed, Palmer lookup needed for Cc1c(NS(=O)(=O)C(F)(F)F)cc(C(=O)N2CC(C)OC(C)C2)c(C)c1C (centres unmarked) [Compound 327] , thanks.
**Result** 50

**Query** So what does the record say about Plant response rating, Pigweed, Palmer for Cc1cc(C(F)(F)F)c(C2=NOC3CCCC23)cc1NS(=O)(=O)C(F)(F)F (centres unmarked) [Compound 306] ?
**Result** 40

**Query** What value of Plant response rating, Pigweed, Palmer has been reported for the following molecule? COC1CCN(C(=O)c2cc(N(COC(=O)C(C)(C)C)S(=O)(=O)C(F)(F)F)c(C)c(C)c2C)CC1 [Compound 370]
**Result** 20

**Query** Field request: Plant response rating, Pigweed, Palmer | item: Cc1cc(C)c(C2=NOC3COCC23)cc1NS(=O)(=O)C(F)(F)F (centres unmarked) [Compound 297]
**Result** 20

**Query** Which Plant response rating, Pigweed, Palmer is reported for this molecule? Cc1c(NS(=O)(=O)C(F)(F)F)cc(C(=O)N(C)C)c(C)c1Cl [Compound 287]
**Result** 40

**Query** I would be grateful if you could share the reported Plant response rating, Pigweed, Palmer for Cc1ccc(C2=NOC3CCCC23)cc1NS(=O)(=O)C(F)(F)F (centres unmarked) [Compound 377] .
**Result** 0

**Query** Form field: reported Plant response rating, Pigweed, Palmer of Cc1c(NS(=O)(=O)C(F)(F)F)cc(C(=O)N(C)C)c(C)c1C [Compound 288]
**Result** 30

**Query** Consider the molecule shown here: Cc1cc(C)c(N(COC(=O)C(C)(C)C)S(=O)(=O)C(F)(F)F)cc1C(=O)N1CCOCC1 [Compound 362] What is its recorded Plant response rating, Pigweed, Palmer?
**Result** 30

**Query** Plant response rating, Pigweed, Palmer lookup needed for CCC1ON=C(c2cc(N(COC(=O)C(C)(C)C)S(=O)(=O)C(F)(F)F)c(C)cc2C)C1CC (centres unmarked) [Compound 344] , thanks.
**Result** 50

**Query** Query (molecule): Cc1c(NS(=O)(=O)C(F)(F)F)cc(C(=O)N2CC(C)OC(C)C2)c(C)c1C (centres unmarked) [Compound 328] ; field requested: Plant response rating, Pigweed, Palmer
**Result** 40
